This collection of values is drawn from patent US7205275.

# Target Of Assay: T1, human Ang-1 (human, UniProt Q15389)
# T1 chain: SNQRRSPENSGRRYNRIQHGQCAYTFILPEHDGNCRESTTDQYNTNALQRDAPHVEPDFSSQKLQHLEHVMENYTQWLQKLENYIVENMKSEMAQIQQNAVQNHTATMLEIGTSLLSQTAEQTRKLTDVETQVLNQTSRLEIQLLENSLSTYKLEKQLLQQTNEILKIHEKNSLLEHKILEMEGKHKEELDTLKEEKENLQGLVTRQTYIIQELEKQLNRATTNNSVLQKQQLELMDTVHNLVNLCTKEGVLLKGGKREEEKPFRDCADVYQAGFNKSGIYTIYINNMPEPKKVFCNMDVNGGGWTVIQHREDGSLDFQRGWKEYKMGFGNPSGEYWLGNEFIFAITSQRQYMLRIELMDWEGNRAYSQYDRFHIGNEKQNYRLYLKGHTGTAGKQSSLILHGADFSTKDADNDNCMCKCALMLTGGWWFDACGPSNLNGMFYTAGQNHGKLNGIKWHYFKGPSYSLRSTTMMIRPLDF
# Method Notes: competition ELISA vs Tie-2
Primed or numbered codes have the meaning given here. Where no end group is shown, it is not given here. [ ]: non-standard residue; d: D form. Fc(3) = Fc: non-antigen-binding fragment of an antibody from proteolytic digestion of a whole antibody (vehicle); Fc(4) = non-antigen-binding fragment of an antibody (from proteolytic digestion of a whole antibody); Fc = immunoglobulin Fc domain fused to the peptide (peptibody); Fc″ = Fc domain of the peptibody fusion

{"Binder": "MGAQQKFQPLDELEQTLYEQFMLQQALEGGGGG[Fc(3)] [L1-10 (N)]", "IC50": "> 1000 nM"}
{"Binder": "M[Fc(4)]GGGGGAQPIRQEECDWDPWTCEHMWEVLE (not fully specified; cysteine pairing not given here) [Con4-44 (C)]", "IC50": "43 nM"}
{"Binder": "M[Fc]GGGGGAQQEECEWDPWTCEHMLE (not fully specified (bridges); printed as M-Fc-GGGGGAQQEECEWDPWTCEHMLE; cysteine pairing not given here; also: Fc fusion domain at position 2) [Con4 (C)]", "IC50": "200 nM"}
{"Binder": "MGAQHTFQPLDELEETLYYQWLYDQLLEGGGGG-{Fc″} [L1-21 (N)]", "IC50": "> 1000 nM"}
{"Binder": "M[Fc]GGGGGAQTNIQEECEWDPWTCDHMPGKLE (not fully specified; cysteine pairing not given here) [Con4-40 (C)]", "IC50": "> 1000 nM"}
{"Binder": "MGAQTNFMPMDDLEQRLYEQFILQQGLEGGGGG-Fc [L1-7 (N)]", "IC50": "> 1000 nM"}
